Please go through the items and note down their half-life.
- EXPERIMENT: in vivo
- Parameters: species or system Göttingen minipigs
- EXPERIMENTAL CONTEXT: female, Göttingen, minipig, iv
*1 amine or outer side, *2 acyl side, *3 side chain or, on linkers, in order; H or OH if unused. Side-chain parts run from the residue outwards. [ ]: non-standard residue; d: D form. The star is where a group is joined. C16 diacid = O=C(O)CCCCCCCCCCCCCCC(=O)*; γGlu = O=C(O)[C@H](CCC(=O)[*:2])N[*:1]; AEEA = NCCOCCOCC(=O)O; Aib = CC(C)(N)C(=O)O; Sar = CNCC(=O)O
Your answer is read as h, so omit the unit and give the number.

Return reported half-life; argument: H-K([Gly-γGlu-C16 diacid])[Sar]Y[Aib]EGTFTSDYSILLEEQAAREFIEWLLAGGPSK([AEEA-AEEA-γGlu-C16 diacid])GAPPPS-OH [Compound 9]
102

Would you kindly repeat that for H-K([γGlu-C16 diacid])[Sar]Y[Aib]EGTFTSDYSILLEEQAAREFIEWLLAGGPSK([AEEA-AEEA-γGlu-C16 diacid])GAPPPS-OH [Compound 3] ?
119

Same lookup for H-K([γGlu-C16 diacid])VY[Aib]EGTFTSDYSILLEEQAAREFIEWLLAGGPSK([AEEA-AEEA-γGlu-C16 diacid])GAPPPS-OH [Non-converting compound 1] , please.
170

# iterate: H-[dK]([AEEA-AEEA-γGlu-C16 diacid])[Sar]Y[Aib]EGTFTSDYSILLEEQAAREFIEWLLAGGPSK([AEEA-AEEA-γGlu-C16 diacid])GAPPPS-OH [Compound 10]
118

Would you kindly repeat that for H-[dK]([γGlu-C16 diacid])[Sar]Y[Aib]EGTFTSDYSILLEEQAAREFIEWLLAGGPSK([AEEA-AEEA-γGlu-C16 diacid])GAPPPS-OH [Compound 1] ?
118
